Below, each entry is listed with its recorded activity score (inhibition).
experiment: inhibitors of intracellular Trypanosoma cruzi, primary screen, cell-based, plate reader, single point, set 2 (AID 651903); conditions: intracellular Trypanosoma cruzi in host cells, at 5.01 µM, hits give high values;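 note: parasites and compound incubated about four days before reading; 0% = median of neutral control wells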
Among all 22,000 compounds or so, about 1,100 (5%) were called active. What follows is part of a selection rich in actives, with near analogues and random picks from the rest.
# value in %; strip the unit string

Solved cases (4 shown):
> print(dat)
                                        mol  numeric.value
1  CC(C)NC(=O)N(C)C[C@H]1Oc2ccc(NS(C)(=O)=O)cc2CC(=O)N([C@@H](C)CO)C[C@H]1C          -20.6
2  Cc1cc(C(=O)Nc2cccc3c2O[C@@H](CN(C)S(=O)(=O)c2ccc(F)cc2)[C@@H](C)CN([C@H](C)CO)C3=O)n(C)n1           32.3
3  Cc1noc(C)c1NC(=O)Nc1ccc2c(c1)CC(=O)N([C@@H](C)CO)C[C@H](C)[C@@H](CN(C)CC1CCCCC1)O2           4.18
4  Cc1noc(C)c1NC(=O)N(C)C[C@@H]1Oc2ccc(NC(=O)Nc3ccc(C(F)(F)F)cc3)cc2C(=O)N([C@H](C)CO)C[C@@H]1C          0.983

Form: compound = "C[C@H]1CN([C@@H](C)CO)C(=O)c2cccc(NC(=O)CCCCCC(=O)Nc3ccccc3N)c2O[C@@H]1CN(C)S(=O)(=O)c1cn(C)cn1" ; activity score (inhibition) = -40.6

Form: compound = "C[C@@H]1CN([C@H](C)CO)C(=O)c2cccc(NC(=O)C3CC3)c2O[C@@H]1CN(C)C(=O)Nc1ccccc1" ; activity score (inhibition) = -22.6

Form: compound = "C[C@H](CO)N1C[C@H](C)[C@@H](CN(C)Cc2ccccc2)Oc2c(NC(=O)CCCCCC(=O)Nc3ccccc3N)cccc2C1=O" ; activity score (inhibition) = 75.8

Form: compound = "O=C(O)CCCCCCC(=O)NN=C1CCCCCC1" ; activity score (inhibition) = -26.3

Form: compound = "Cc1noc(C)c1NC(=O)Nc1ccc2c(c1)C(=O)N([C@H](C)CO)C[C@H](C)[C@H](CN(C)S(=O)(=O)c1cccs1)O2" ; activity score (inhibition) = 2.68

Form: compound = "COc1ccc(NC(=O)Nc2ccc3c(c2)CC(=O)N([C@@H](C)CO)C[C@H](C)[C@H](CN(C)C(=O)Nc2ccc4c(c2)OCO4)O3)cc1" ; activity score (inhibition) = -16.4

Form: compound = "C[C@H]1CN([C@@H](C)CO)C(=O)Cc2cc(NC(=O)C3CC3)ccc2O[C@@H]1CN(C)C(=O)NC1CCCCC1" ; activity score (inhibition) = -11

Form: compound = "O=C(NO)c1cccc(C(=O)N/N=C/c2cccnc2Cl)c1" ; activity score (inhibition) = 1.22

Form: compound = "C[C@H](CO)N1C[C@H](C)[C@@H](CN(C)C(=O)Nc2ccccc2)Oc2c(NC(=O)CCCCCC(=O)Nc3ccccc3N)cccc2C1=O" ; activity score (inhibition) = -11.7

Form: compound = "Cc1ccc(S(=O)(=O)N(C)C[C@H]2OCCCC[C@@H](C)Oc3ccc(NS(C)(=O)=O)cc3C(=O)N([C@H](C)CO)C[C@@H]2C)cc1" ; activity score (inhibition) = 4.35

Reference source: PubChem BioAssay AID651903
